src = patent US9446047B2

molecular target: RORγt (Homo sapiens, UniProt P51449); construct: host or cells: IL-17A Prom/LUCPorter HEK 293 cell line (IMGENEX, IML-301); experiment: RORγt-activated IL-17A Prom/LUCPorter HEK 293 cells luciferase reporter assay; type: cell-based; conditions: IL-17A Prom/LUCPorter HEK 293 cells transfected with RORγt, 16 h; read-out: RORγt Cell Specific
Sequence (P51449 1-497 isoform P51449-2): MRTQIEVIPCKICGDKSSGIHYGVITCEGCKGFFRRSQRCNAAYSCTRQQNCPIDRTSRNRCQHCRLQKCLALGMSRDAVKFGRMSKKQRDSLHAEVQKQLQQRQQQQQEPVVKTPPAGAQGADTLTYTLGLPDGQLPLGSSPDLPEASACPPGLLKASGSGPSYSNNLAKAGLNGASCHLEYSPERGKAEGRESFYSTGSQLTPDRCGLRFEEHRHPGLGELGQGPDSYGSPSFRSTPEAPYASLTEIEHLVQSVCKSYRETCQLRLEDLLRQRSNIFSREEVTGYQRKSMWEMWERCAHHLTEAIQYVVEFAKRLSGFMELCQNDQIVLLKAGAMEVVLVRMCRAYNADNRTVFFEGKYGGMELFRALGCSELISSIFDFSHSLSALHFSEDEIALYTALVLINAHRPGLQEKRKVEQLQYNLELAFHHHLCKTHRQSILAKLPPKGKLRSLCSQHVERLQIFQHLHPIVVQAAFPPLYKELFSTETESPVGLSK
endpointName: IC50

Inquiry: Which measured IC50 value corresponds to COc1ccc2c(c1OC)CC(Cc1ncccc1C(F)(F)F)C2=O (stereo not shown) [compound 169] ?
Reply text: > 1000 nM

Inquiry: Record request: IC50 value, item COc1cc2c(cc1O)C(=O)C(Cc1ncccc1C(F)(F)F)C2 (stereo not shown) [compound 190]
Reply text: > 1000 nM

Inquiry: For COc1ccc2c(c1OC)CC(Cc1ccc(SC(F)(F)F)cc1)C2=O (stereo not shown) [compound 167] , what is its reported IC50?
Reply text: > 1000 nM

Inquiry: Look up IC50: COc1cc2c(cc1N1CCOCC1)CC(Cc1ccc(C(F)(F)F)cc1)C2=O (stereo not shown) [compound 86]
Reply text: > 1000 nM

Inquiry: IC50 lookup needed for COc1cc2c(cc1N1CCOCC1)CC(Cc1ccc(Cl)cc1C(F)(F)F)C2=O (stereo not shown) [compound 56] , thanks.
Reply text: > 1000 nM

Inquiry: Entry COc1cc2c(cc1N1CCOCC1)CC(Cc1ccc(SC(F)(F)F)cc1)C2=O (stereo not shown) [compound 74] : reported IC50 = ?
Reply text: > 10000 nM

Inquiry: Report IC50 for CCS(=O)(=O)Oc1ccc2c(c1)CC(Cc1ccc(SC(F)(F)F)cc1)C2=O (stereo not shown) [compound 194] please.
Reply text: < 500 nM

Inquiry: Field request: IC50 | item: COc1cc2c(cc1NC1CCN(C)CC1)CC(Cc1ccc(SC(F)(F)F)cc1)C2=O (stereo not shown) [compound 144]
Reply text: > 1000 nM

Inquiry: What IC50 value was documented for this compound, COc1cc2c(cc1N1CCOCC1)CC(Cc1cc(Cl)ccc1C(F)(F)F)C2=O (stereo not shown) [compound 53] ?
Reply text: > 1000 nM

Inquiry: GET /values?readout=IC50&item= COc1cc2c(cc1N1CCOCC1)CC(Cc1cc(C(F)(F)F)ccc1F)C2=O (stereo not shown) [compound 77]
Reply text: > 1000 nM

Inquiry: # lookup: IC50 of COc1cc2c(cc1Cl)CC(Cc1ccc(SC(F)(F)F)cc1)C2=O (stereo not shown) [compound 172]
Reply text: > 1000 nM

Inquiry: Recorded IC50 for COc1cc2c(cc1N1CCOCC1)CC(Cc1ccc(Cl)c(C(F)(F)F)c1)C2=O (stereo not shown) [compound 89] , please?
Reply text: > 1000 nM

Inquiry: Which IC50 value is on record for COc1cc2c(c(N3CCC(C)CC3)c1OC)CC(Cc1ccc(SC(F)(F)F)cc1)C2=O (stereo not shown) [compound 131] ?
Reply text: > 1000 nM

Inquiry: Which value of IC50 has been reported for COc1cc2c(cc1N1CCOCC1)CC(Cc1ncccc1C(F)(F)F)C2=O (stereo not shown) [compound 68] in the records?
Reply text: < 500 nM

Inquiry: Query: IC50; subject: COc1cc2c(cc1N1CCOCC1)CC(Cc1cc(C(F)(F)F)ccc1Cl)C2=O (stereo not shown) [compound 158]
Reply text: > 1000 nM

Inquiry: I would be grateful if you could share the reported IC50 for COc1cc2c(cc1N1CCN(C)CC1)CC(Cc1cccc(C(F)(F)F)c1)C2=O (stereo not shown) [compound 156] .
Reply text: < 500 nM

Inquiry: Please give the measured IC50 for this compound: COc1cc2c(cc1N1CCOCC1)CC(CC1CCN(Cc3ccccc3)CC1)C2=O (stereo not shown) [compound 23]
Reply text: > 1000 nM

Inquiry: Entry COc1cc2c(cc1N1CCOCC1)CC(Cc1cc(Br)cc(OC(F)(F)F)c1)C2=O (stereo not shown) [compound 32] : reported IC50 = ?
Reply text: < 500 nM

Inquiry: What does the data say about its IC50? Entry: COc1cc2c(cc1N1CCC(F)CC1)CC(Cc1ccc(SC(F)(F)F)cc1)C2=O (stereo not shown) [compound 149]
Reply text: > 10000 nM
